Sourced from patent US9957271B2

Target: SIRT1 (Homo sapiens)
Experiment: TAMRA based mass spectrometry assay of SIRT1 activity
Type: biochemical
Settings: TAMRA peptide substrate; concentration giving 150% activation of SIRT1
measured_quantity: TAMRA EC1.5

Worked cases, answers included:
# compound, TAMRA EC1.5
data = [
    ("O=C(Nc1cccc(N2CC3(COC3)C2)n1)c1cnc2ccc(-c3ccccc3C(F)(F)F)nn12", "A (EC1.5<1 μM)"),
    ("Cc1cc2ncc(NC(=O)c3cccc(OCC(O)CO)n3)n2nc1-c1ccccc1C(F)(F)F (centres unmarked)", "A (EC1.5<1 μM)"),
    ("Cc1cccc(NC(=O)c2cnc3ccc(-c4ccccc4OC(F)(F)F)nn23)n1", "A (EC1.5<1 μM)"),
    ("Cc1cc(C)nc(NC(=O)c2c(C)nc3c(C)cc(-c4ccccc4OC(F)(F)F)nn23)c1", "A (EC1.5<1 μM)"),
    ("O=C(Nc1ccccn1)c1ncn2ccc(-c3ccccc3C(F)(F)F)nc12", "B (EC1.5 1-25 μM)"),
    ("Cc1scnc1C(=O)Nc1cnc2c(C)c(C)c(-c3ccccc3C(F)(F)F)nn12", "A (EC1.5<1 μM)"),
]

# query: TAMRA EC1.5 | item O=C(Nc1cccc(N2CCOCC2)n1)c1cnc2ccc(N3CC[C@H](F)C3)nn12 | system: SIRT1 (Homo sapiens)
B (EC1.5 1-25 μM)

Also COc1cccc(NC(=O)c2cnn3ccc(-c4ccccc4C(F)(F)F)nc23)n1 ?
A (EC1.5<1 μM)

---

Molecular target: SIRT1 (Homo sapiens, UniProt Q96EB6)
Assay: Trp mass spectrometry assay of SIRT1 activity
Assay type: biochemical
Details: Trp assay; concentration giving 150% activation of SIRT1
measured_quantity: Trp EC1.5 (μM)

Worked cases, answers included:
# compound, val
rows = [
    ("Cc1nc2ccc(N3CC[C@H](F)C3)nn2c1C(=O)Nc1ccc(F)cn1", "B (EC1.5 1-25 μM)"),
    ("O=C(Nc1ccnc(OCC(F)(F)F)c1)c1cnc2ccc(-c3ccccc3C(F)(F)F)nn12", "B (EC1.5 1-25 μM)"),
    ("Cc1cc(C)nc(NC(=O)c2cnn3ccc(-c4ccccc4OC(F)(F)F)nc23)n1", "B (EC1.5 1-25 μM)"),
    ("Cc1nc2ccc(-c3ccccc3C(F)(F)F)nn2c1C(=O)Nc1ccnn1C(C)(C)C", "B (EC1.5 1-25 μM)"),
    ("Cc1cccc(-c2ccc3nc(C)c(C(=O)Nc4ccc(C)nn4)n3n2)c1", "A (EC1.5<1 μM)"),
    ("O=C(Nc1cccnn1)c1cnc2ccc(N3CCCC(C(F)(F)F)C3)nn12 (centres unmarked)", "A (EC1.5<1 μM)"),
]

Alright, here's another compound for you.
# query: Trp EC1.5 (μM) | item O=C(Nc1cncc(F)c1)c1cnn2ccc(-c3ccccc3C(F)(F)F)nc12 | system: SIRT1 (Homo sapiens, UniProt Q96EB6)
B (EC1.5 1-25 μM)

---

This listing pairs molecules with measured Emax.
Biological target: SIRT1 (Homo sapiens, UniProt Q96EB6)
Sequence (Q96EB6 1-747): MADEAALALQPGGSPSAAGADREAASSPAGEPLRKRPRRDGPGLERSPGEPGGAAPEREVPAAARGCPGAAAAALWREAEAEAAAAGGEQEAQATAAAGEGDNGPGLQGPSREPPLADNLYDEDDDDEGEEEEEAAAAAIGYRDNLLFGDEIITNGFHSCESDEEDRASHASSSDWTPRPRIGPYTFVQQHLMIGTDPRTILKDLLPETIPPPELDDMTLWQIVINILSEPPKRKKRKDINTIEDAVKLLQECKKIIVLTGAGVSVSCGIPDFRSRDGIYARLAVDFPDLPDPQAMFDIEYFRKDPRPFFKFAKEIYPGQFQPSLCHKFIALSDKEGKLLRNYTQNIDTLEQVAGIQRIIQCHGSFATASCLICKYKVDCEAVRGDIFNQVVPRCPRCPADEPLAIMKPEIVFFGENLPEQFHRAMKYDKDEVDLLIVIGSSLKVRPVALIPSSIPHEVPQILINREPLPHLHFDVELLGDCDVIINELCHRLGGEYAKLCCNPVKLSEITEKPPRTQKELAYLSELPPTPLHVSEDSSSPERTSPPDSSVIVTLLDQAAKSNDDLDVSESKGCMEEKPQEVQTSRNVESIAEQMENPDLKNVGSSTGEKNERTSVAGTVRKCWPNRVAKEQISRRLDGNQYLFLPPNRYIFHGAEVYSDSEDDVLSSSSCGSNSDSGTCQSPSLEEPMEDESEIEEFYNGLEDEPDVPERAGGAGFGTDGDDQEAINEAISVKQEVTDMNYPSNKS
Assay: TAMRA based mass spectrometry assay of SIRT1 activity
Assay type: biochemical
Conditions: TAMRA assay; percent maximum fold activation; read-out: TAMRA % Fold Act

Worked cases, answers included:
# molecule, measured_quantity, val
data = [
    ("CC1(COc2ccnc(NC(=O)c3cnc4ccc(-c5ccccc5C(F)(F)F)nn34)n2)COC1 [Compound 340]", "Emax", "≥ 350%"),
    ("Cc1ncccc1C(=O)Nc1cnc2ccc(-c3ccccc3C(F)(F)F)nn12 [Compound 392]", "Emax", "< 350%"),
    ("Cc1ccc(NC(=O)c2c(C)nc3ccc(-c4ccccc4C)nn23)nn1 [Compound 694]", "Emax", "≥ 350%"),
    ("Cc1nc2ccc(-c3cccc(F)c3)nn2c1C(=O)Nc1cccnn1 [Compound 767]", "Emax", "< 350%"),
]

# lookup: Emax of Cc1cc(C)nc(NC(=O)c2cnn3ccc(-c4ccccc4OC(F)(F)F)nc23)n1 [Compound 688]
≥ 350%

Also Cc1cc2ncc(C(=O)Nc3ccccn3)n2nc1-c1ccccc1C(F)(F)F [Compound 224] ?
≥ 350%

Also O=C(Nc1ccncc1F)c1cnc2ccc(-c3ccccc3OC[C@H](O)CO)nn12 [Compound 831] ?
≥ 350%

---

Biological target: UniProt:Q96EB6
Assay: TAMRA based mass spectrometry assay of SIRT1 activity
Type: biochemical
Settings: TAMRA assay; concentration giving 150% activation of SIRT1
measured_quantity: TAMRA EC1.5 (μM)

Worked cases, answers included:
# compound, measured_on, TAMRA EC1.5 (μM)
data = [
    ("Cc1cc(NC(=O)c2cnc3ccc(-c4ccccc4OC[C@H](O)CO)nn23)nc(C)n1 [Compound 832]", "UniProt:Q96EB6", "A (EC1.5<1 μM)"),
    ("O=C(Nc1cncc(F)c1)c1cnn2ccc(-c3ccccc3C(F)(F)F)nc12 [Compound 642]", "UniProt:Q96EB6", "A (EC1.5<1 μM)"),
    ("Cc1cncc(NC(=O)c2c(C)nn3ccc(-c4ccccc4C(F)(F)F)nc23)c1 [Compound 638]", "UniProt:Q96EB6", "A (EC1.5<1 μM)"),
    ("O=C(Nc1ncccn1)c1cnn2ccc(-c3ccccc3C(F)(F)F)nc12 [Compound 266]", "UniProt:Q96EB6", "B (EC1.5 1-25 μM)"),
    ("Cc1cc(C)nc(NC(=O)c2cnc3ccc(-c4ccccc4OC[C@H](O)CO)nn23)c1 [Compound 792]", "UniProt:Q96EB6", "A (EC1.5<1 μM)"),
]

# lookup: TAMRA EC1.5 (μM) of Cc1ccc(NC(=O)c2cnc3ccc(-c4ccccc4C(F)(F)F)nn23)nn1 [Compound 276]
A (EC1.5<1 μM)

Also Cc1nc2ccc(-c3ccccc3OC[C@H](O)CO)nn2c1C(=O)Nc1cnccn1 [Compound 775] ?
A (EC1.5<1 μM)

Also O=C(Nc1cnn2ccc(-c3ccccc3C(F)(F)F)nc12)c1ncccn1 [Compound 252] ?
B (EC1.5 1-25 μM)

Also Cc1nc2c(C)cc(-c3ccccc3C(F)(F)F)nn2c1C(=O)Nc1ccnc(C(C)C)n1 [Compound 730] ?
A (EC1.5<1 μM)

Also Cc1nc2ccc(-c3ccccc3C(F)(F)F)nn2c1NC(=O)c1ccncn1 [Compound 377] ?
B (EC1.5 1-25 μM)

Also CCn1nccc1NC(=O)c1c(C)nc2ccc(-c3ccccc3C(F)(F)F)nn12 [Compound 674] ?
B (EC1.5 1-25 μM)

Also Cc1cc2ncc(C(=O)Nc3cnccn3)n2nc1-c1ccccc1C(F)(F)F [Compound 246] ?
B (EC1.5 1-25 μM)

Also Cc1cc(-c2ccccc2C(F)(F)F)nn2c(C(=O)Nc3ccnc(O[C@@H]4CCOC4)n3)cnc12 [Compound 598] ?
A (EC1.5<1 μM)

Also Cc1cnc(NC(=O)c2cnn3ccc(-c4ccccc4OC(F)(F)F)nc23)cn1 [Compound 623] ?
A (EC1.5<1 μM)

Also O=C(Nc1nccc(OCC(F)(F)F)n1)c1cnc2ccc(-c3ccccc3C(F)(F)F)nn12 [Compound 311] ?
A (EC1.5<1 μM)

Also COc1ccc(NC(=O)c2c(C)nn3ccc(-c4ccccc4C(F)(F)F)nc23)nn1 [Compound 696] ?
A (EC1.5<1 μM)

Also N#Cc1ccccc1-c1ccc2ncc(NC(=O)c3cnccn3)n2n1 [Compound 329] ?
B (EC1.5 1-25 μM)

Also Cc1cc(C)nc(NC(=O)c2cnn3ccc(-c4ccccc4OC(F)(F)F)nc23)c1 [Compound 605] ?
A (EC1.5<1 μM)
